Hey, just so you know, these numbers are from paper PMC7748244.

Assay read-out IC50; system under study: PfJmj3 (Plasmodium falciparum, UniProt Q8IIE4).
Sequence (Q8IIE4 1-446): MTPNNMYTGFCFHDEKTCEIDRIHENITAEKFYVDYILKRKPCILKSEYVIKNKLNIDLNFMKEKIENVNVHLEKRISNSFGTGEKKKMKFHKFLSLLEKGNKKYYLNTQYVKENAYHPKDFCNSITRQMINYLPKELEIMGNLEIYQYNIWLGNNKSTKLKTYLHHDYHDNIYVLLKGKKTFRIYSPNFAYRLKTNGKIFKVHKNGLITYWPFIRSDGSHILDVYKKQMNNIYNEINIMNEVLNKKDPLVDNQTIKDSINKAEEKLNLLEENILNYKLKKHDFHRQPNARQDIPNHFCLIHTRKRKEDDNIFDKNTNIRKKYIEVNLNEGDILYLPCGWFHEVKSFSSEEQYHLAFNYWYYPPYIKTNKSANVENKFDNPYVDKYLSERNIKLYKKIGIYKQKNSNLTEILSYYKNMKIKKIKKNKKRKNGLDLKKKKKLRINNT

Need IC50 of CC(C)C(=O)NC(c1ccco1)c1ccc2cccnc2c1O (stereo not drawn) [SD-70] , thanks.
2400 nM

What do you have for CN(C)CCCNC(=O)c1ccc(-c2cc(O)c3ncccc3c2)cc1 [ML324] ?
3300 nM

Then what about the compound Clc1ccc(N/N=C(\c2ccccc2)c2ccccn2)nc1 [JIB-04 E] ?
2600 nM
